# assayTarget: fusion protein PRK
# Sequence (chain, as listed by the source): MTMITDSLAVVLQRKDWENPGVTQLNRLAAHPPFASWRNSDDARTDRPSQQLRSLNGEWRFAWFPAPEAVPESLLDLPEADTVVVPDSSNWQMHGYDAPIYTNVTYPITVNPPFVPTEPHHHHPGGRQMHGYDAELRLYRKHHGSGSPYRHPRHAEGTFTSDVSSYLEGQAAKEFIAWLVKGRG

{"protein": "OmpT protease variant OmpT D97Y (protein) STETLSFTPDNINADISLGTLSGKTKERVYLAEEGGRKVSQLDWKFNNAAIIKGAINWDLMPQISIGAAGWTTLGSRGGNMVDQDWMDSSNPGTWTYESRHPDTQLNYANEFDLNIKGWLLNEPNYRLGLMAGYQESRYSFTARGGSYIYSSEEGFRDDIGSFPNGERAIGYKQRFKMPYIGLTGSYRYEDFELGGTFKYSGWVESSDNDEHYDPGKRITYRSKVKDQNYYSVAVNAGYYVTPNAKVYVEGAWNRVTNKKGNTSLYDHNNNTSDYSKNGAGIENYNFITTAGLKYTF", "relative cleavage efficiency": "less than 3.0%"}
{"protein": "OmpT protease variant OmpT D97M (protein) STETLSFTPDNINADISLGTLSGKTKERVYLAEEGGRKVSQLDWKFNNAAIIKGAINWDLMPQISIGAAGWTTLGSRGGNMVDQDWMDSSNPGTWTMESRHPDTQLNYANEFDLNIKGWLLNEPNYRLGLMAGYQESRYSFTARGGSYIYSSEEGFRDDIGSFPNGERAIGYKQRFKMPYIGLTGSYRYEDFELGGTFKYSGWVESSDNDEHYDPGKRITYRSKVKDQNYYSVAVNAGYYVTPNAKVYVEGAWNRVTNKKGNTSLYDHNNNTSDYSKNGAGIENYNFITTAGLKYTF", "relative cleavage efficiency": "< 3%"}
{"protein": "OmpT protease variant OmpT D97R (protein) STETLSFTPDNINADISLGTLSGKTKERVYLAEEGGRKVSQLDWKFNNAAIIKGAINWDLMPQISIGAAGWTTLGSRGGNMVDQDWMDSSNPGTWTRESRHPDTQLNYANEFDLNIKGWLLNEPNYRLGLMAGYQESRYSFTARGGSYIYSSEEGFRDDIGSFPNGERAIGYKQRFKMPYIGLTGSYRYEDFELGGTFKYSGWVESSDNDEHYDPGKRITYRSKVKDQNYYSVAVNAGYYVTPNAKVYVEGAWNRVTNKKGNTSLYDHNNNTSDYSKNGAGIENYNFITTAGLKYTF", "relative cleavage efficiency": "less than 3.0%"}
{"protein": "OmpT protease variant OmpT D97L (protein) STETLSFTPDNINADISLGTLSGKTKERVYLAEEGGRKVSQLDWKFNNAAIIKGAINWDLMPQISIGAAGWTTLGSRGGNMVDQDWMDSSNPGTWTLESRHPDTQLNYANEFDLNIKGWLLNEPNYRLGLMAGYQESRYSFTARGGSYIYSSEEGFRDDIGSFPNGERAIGYKQRFKMPYIGLTGSYRYEDFELGGTFKYSGWVESSDNDEHYDPGKRITYRSKVKDQNYYSVAVNAGYYVTPNAKVYVEGAWNRVTNKKGNTSLYDHNNNTSDYSKNGAGIENYNFITTAGLKYTF", "relative cleavage efficiency": "< 3%"}
